# Tested on: TK-10
# MEASUREMENT_DESCRIPTION: Cytotoxicity against human TK10 cells after 48 hrs by trypan blue dye exclusion assay
# Type: functional
# TEST_PARAMETERS: TK-10, 48 h
PARAMETER_MEASURED: GI50 (nM)
Expressed in nM, but write only the number.

Please state recorded GI50 (tested on TK-10) of COc1cc([C@H]2C3=C(COC3=O)Nc3cc4c(cc32)OCO4)cc2c1OCO2 115

Field entry: COc1cc([C@@H]2c3cc4c(cc3[C@H](O)[C@H]3COC(=O)[C@H]23)OCO4)cc(OC)c1OC 30.5

###

# Lookup of reported log10(GI50) keyed by entry
# Test system: OVCAR-8
# MEASUREMENT_DESCRIPTION: Cytotoxicity against human OVCAR8 cells after 48 hrs by trypan blue dye exclusion assay
# Assay type: functional
# TEST_PARAMETERS: OVCAR-8, 48 h
Short version: log10 scale, GI50, µM.

Tell me the measured log10(GI50) of COc1cc(OC)cc(C2C3=C(COC3=O)Nc3cc(OC)ccc32)c1 (stereo not drawn) , please. -1.69

Note, next up: COc1cc([C@@H]2c3cc4c(cc3[C@H](O)[C@H]3COC(=O)[C@H]23)OCO4)cc(OC)c1OC -2.00

And COc1ccc2c(c1)C(c1cc(OC)c3c(c1)OCO3)C1=C(COC1=O)N2 (stereo not drawn) ? -0.23

Another: COc1cc([C@H]2C3=C(COC3=O)Nc3cc4c(cc32)OCO4)cc2c1OCO2 -0.63

Subsequent entry: COc1ccc2c(c1)OC1=C(C(=O)OC1)C2c1cc(OC)c2c(c1)OCCO2 (stereo not drawn) -1.31

Now consider COc1ccc2c(c1)OC1=C(C(=O)OC1)C2c1cc(OC)c2c(c1)OCO2 (stereo not drawn) and answer again. -1.25

Try the compound COc1ccc2c(c1)OC1=C(C(=O)OC1)C2c1cc(OC)c(OC)c(OC)c1 (stereo not drawn) -0.10

###

# System: SN12C
# MEASUREMENT_DESCRIPTION: Cytotoxicity against human SN12C cells after 48 hrs by trypan blue dye exclusion assay
# Type: functional
PARAMETER_MEASURED: GI50 (nM)
Reply with just the number (in nM).

// below: answered compounds
compound="COc1ccc2c(c1)NC1=C(C(=O)OC1)C2c1cc(OC)c2c(c1)OCO2 (stereo not drawn)" measured=19.9
compound=COc1cc([C@H]2C3=C(COC3=O)Nc3cc4c(cc32)OCO4)cc2c1OCO2 measured=350

Read the next record carefully.
Reported GI50 for COc1ccc2c(c1)OC1=C(C(=O)OC1)C2c1cc(OC)c2c(c1)OCO2 (stereo not drawn) : what is it? 62.5

###

# System: Paracentrotus lividus
# MEASUREMENT_DESCRIPTION: Antimitotic activity against Paracentrotus lividus embryo assessed as concentration required to cause 100% cleavage arrest after 2.5 to 6 hrs
# Type: functional
PARAMETER_MEASURED: log10 of EC (log10 of the value in nM)
Please be aware that the numbers have been log10-transformed from EC in nM.

Use these answered entries as a reference point.
compound="COc1ccc2c(c1)OC1=C(C(=O)OC1)C2c1cc(OC)c(OC)c(OC)c1 (stereo not given)" measured=1.70
compound="COc1ccc2c(c1)C(c1cc(OC)c(OC)c(OC)c1)C1=C(COC1=O)O2 (stereo not given)" measured=3.30
compound="COc1cc(OC)cc(C2C3=C(COC3=O)Oc3cc(OC)ccc32)c1 (stereo not given)" measured=0.70
compound="COc1ccc2c(c1)OC1=C(C(=O)OC1)C2c1cc(OC)c2c(c1)OCO2 (stereo not given)" measured=1.00
compound="COc1ccc2c(c1)OC1=C(C(=O)OC1)C2c1cc(OC)c2c(c1OC)OCO2 (stereo not given)" measured=2.70

Could you share which log10 of EC value was measured for COc1ccc2c(c1)OC1=C(C(=O)OC1)C2c1cc(OC)c2c(c1)OCCO2 (stereo not given) ? 1.70

Now the compound COc1ccc2c(c1)NC1=C(C(=O)OC1)C2c1cc(OC)c2c(c1)OCCO2 (stereo not given) 1.70

// same read-out, input: COc1ccc2c(c1)NC1=C(C(=O)OC1)C2c1cc(OC)c(OC)c(OC)c1 (stereo not given) 2.70

Field entry: COc1ccc2c(c1)C(c1cc(OC)c3c(c1)OCO3)C1=C(COC1=O)O2 (stereo not given) 2.30
